// data source = PubChem BioAssay (NCI)

Test system: A549 NSCLC
Experiment: NCI tumour cell line growth inhibition, 48 h
READOUT KIND: TGI

• Cn1cncc1-c1c(F)cncc1NC(=O)c1c(N)nn2cc(F)cnc12 = > 100 µM
• CC1=C(C(=O)Nc2ccccc2)C(c2cc(Cl)cc(Cl)c2)C(C(=O)Nc2ccccc2)=C(C)N1 = 58.8 µM
• O=C(N/C(=C/c1cccc([N+](=O)[O-])c1)c1nc2ccc(Cl)cc2[nH]1)c1ccccc1 = > 100 µM
• O=C1NC(=Nc2ccccc2Cl)N/C1=C\c1ccc(Cl)cc1Cl = > 100 µM
• COc1cc(-c2cc3ncccc3c3[nH]c(=O)c4cccnc4c23)cc(OC)c1OC = > 100 µM
